experiment: Phase 1 single ascending dose plasma pharmacokinetics in healthy volunteers; assay type: in vivo, human; conditions: human, po, 600 mg, Group 2, 600 mg single oral dose, individual subjects, read-out: AUC(0-24)
Quantity Name: AUC(0-t)

Given item CC(=O)c1nn(CC(=O)N2C[C@H](F)C[C@H]2C(=O)Nc2cccc(Br)n2)c2ccc(-c3cnc(C)nc3)cc12 [Compound 1] , the value recorded as its AUC(0-t) is 7020 ng·h/mL

###

assay: Ocular tissue distribution and pharmacokinetics, 15 mg/kg BID oral, nonpigmented New Zealand White rabbits (Example 7); format: in vivo; details: male, New Zealand White, rabbit, plasma, po, 15 mg/kg, plasma, male NZW rabbits, Group 4, Day 15, 15 mg/kg/dose BID oral (30 mg/kg/day); read-out: AUC0-12
Quantity Name: AUC(0-t) (µg·h/mL)
Numeric only. Scale: µg·h/mL

Given item CC(=O)c1nn(CC(=O)N2C[C@H](F)C[C@H]2C(=O)Nc2cccc(Br)n2)c2ccc(-c3cnc(C)nc3)cc12 , the value recorded as its AUC(0-t) is 2.93

// provenance: patent US20230126447A1
